Target desc: fusion protein from the PR-ligand-binding domain and a Gal4-transactivation domain (Homo sapiens)
Construct: expressed in transfected cells; host or cells: CHO K1 cells, stably transfected
Sequence (P06401 679-913 limits assumed): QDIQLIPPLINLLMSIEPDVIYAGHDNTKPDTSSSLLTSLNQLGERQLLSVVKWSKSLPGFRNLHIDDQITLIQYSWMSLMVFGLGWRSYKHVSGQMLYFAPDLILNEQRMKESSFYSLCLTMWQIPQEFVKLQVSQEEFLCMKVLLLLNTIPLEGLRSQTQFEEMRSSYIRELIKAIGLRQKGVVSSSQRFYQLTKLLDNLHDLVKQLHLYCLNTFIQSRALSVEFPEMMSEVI
Sequence (P04386 1-147 partner limits assumed): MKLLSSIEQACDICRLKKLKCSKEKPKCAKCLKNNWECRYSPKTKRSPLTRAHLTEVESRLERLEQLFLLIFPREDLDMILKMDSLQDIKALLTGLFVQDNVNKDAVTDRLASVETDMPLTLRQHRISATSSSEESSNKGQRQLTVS
Test method notes: Progestational action by transactivation test (CHO K1 reporter cells)
Assay type: cell-based
Study conditions: CHO-K1, 16 h, read-out: Progesterone receptor Agonism efficacy
Observation type: Emax (%)
Numbers only here, please. The scale is %.

-- ask What Emax value was documented for this compound, C[C@]12CC[C@H]3[C@@H](CCC4=C(Cl)C(=O)CC[C@@H]43)[C@@H]1[C@H]1C[C@H]1[C@@]21C=CC(=O)O1 ?
-- reply 25.7

-- ask Record: CC[C@]12CC[C@H]3[C@H]([C@@H]1[C@@H]1C[C@@H]1[C@@]21C=CC(=O)O1)[C@H](C)CC1=CC(=O)CC[C@@H]13
-- reply 71.1

-- ask Also, C[C@]12CC[C@H]3[C@@H](CCC4=CC(=O)CC[C@@H]43)[C@@H]1[C@H]1C[C@H]1[C@@]21C=CC(=O)O1 please.
-- reply 75.5

-- ask Next compound up: C[C@@H]1CC2=CC(=O)CC[C@@H]2[C@H]2CC[C@@]3(C)[C@@H]([C@@H]4C[C@@H]4[C@@]34C=CC(=O)O4)[C@@H]21 [Example 23A]
-- reply 140

* * *

Target desc: UniProt:P10275
Sequence (P10275 whole entry, species assumed): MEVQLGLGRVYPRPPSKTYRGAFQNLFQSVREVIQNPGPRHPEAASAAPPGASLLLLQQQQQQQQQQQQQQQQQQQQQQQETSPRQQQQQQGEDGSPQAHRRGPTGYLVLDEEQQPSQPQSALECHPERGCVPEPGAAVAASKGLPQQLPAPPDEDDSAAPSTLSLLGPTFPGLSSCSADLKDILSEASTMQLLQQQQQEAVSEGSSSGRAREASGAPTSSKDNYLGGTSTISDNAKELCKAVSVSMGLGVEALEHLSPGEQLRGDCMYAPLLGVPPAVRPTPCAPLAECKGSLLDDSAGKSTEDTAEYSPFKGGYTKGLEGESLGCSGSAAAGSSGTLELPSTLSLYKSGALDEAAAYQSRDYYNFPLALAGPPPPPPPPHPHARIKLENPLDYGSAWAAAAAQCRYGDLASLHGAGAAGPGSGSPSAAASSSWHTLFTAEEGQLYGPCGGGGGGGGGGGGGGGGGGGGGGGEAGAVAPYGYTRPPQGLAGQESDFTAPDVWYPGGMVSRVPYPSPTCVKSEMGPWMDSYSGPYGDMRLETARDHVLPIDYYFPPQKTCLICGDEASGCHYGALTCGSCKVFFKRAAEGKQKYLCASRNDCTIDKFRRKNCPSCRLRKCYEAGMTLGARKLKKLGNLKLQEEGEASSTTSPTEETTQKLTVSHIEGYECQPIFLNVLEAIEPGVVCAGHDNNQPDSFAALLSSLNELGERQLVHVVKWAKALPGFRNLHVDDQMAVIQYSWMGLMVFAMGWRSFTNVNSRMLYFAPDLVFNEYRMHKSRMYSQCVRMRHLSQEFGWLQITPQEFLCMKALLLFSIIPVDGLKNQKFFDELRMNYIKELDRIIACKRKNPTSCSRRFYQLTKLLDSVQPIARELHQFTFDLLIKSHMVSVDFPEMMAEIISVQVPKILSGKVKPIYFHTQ
Test method notes: Androgenic/antiandrogenic action by transactivation test (PC3 reporter cells)
Task for the reader: assign each of the following compounds its reported EC50.
Numbers only; they are read as nM.

-- ask Please give the measured EC50 for this compound: C=C[C@@H]1CC2=CC(=O)CC[C@@H]2[C@H]2CC[C@@]3(C)[C@@H]([C@@H]4C[C@@H]4[C@@]34C=CC(=O)O4)[C@@H]21 [Example 25A]
-- reply 1.83

-- ask Entry to check: C=C[C@@H]1CC2=CC(=O)CC[C@@H]2[C@H]2CC[C@@]3(C)[C@@H]([C@H]4C[C@H]4[C@@]34C=CC(=O)O4)[C@@H]21 [Example 16A]
-- reply 12

-- ask Now the same for CC[C@@H]1CC2=CC(=O)CC[C@@H]2[C@H]2CC[C@@]3(C)[C@@H]([C@@H]4C[C@@H]4[C@@]34C=CC(=O)O4)[C@H]12 [Example 24A]
-- reply 52

-- ask Same question for C[C@@H]1CC2=CC(=O)CC[C@@H]2[C@H]2CC[C@@]3(C)[C@@H]([C@@H]4C[C@@H]4[C@@]34C=CC(=O)O4)[C@@H]21 [Example 23A] please.
-- reply 19

-- ask Try the compound CC[C@]12CC[C@H]3[C@@H](CCC4=CC(=O)CC[C@@H]43)[C@@H]1[C@@H]1C[C@@H]1[C@@]21C=CC(=O)O1
-- reply 4.7

* * *

Target desc: progesterone receptor (Homo sapiens, UniProt P06401)
Construct: made in house; host or cells: Hi5 insect cells (cytosol)
Sequence (P06401 whole entry, species assumed): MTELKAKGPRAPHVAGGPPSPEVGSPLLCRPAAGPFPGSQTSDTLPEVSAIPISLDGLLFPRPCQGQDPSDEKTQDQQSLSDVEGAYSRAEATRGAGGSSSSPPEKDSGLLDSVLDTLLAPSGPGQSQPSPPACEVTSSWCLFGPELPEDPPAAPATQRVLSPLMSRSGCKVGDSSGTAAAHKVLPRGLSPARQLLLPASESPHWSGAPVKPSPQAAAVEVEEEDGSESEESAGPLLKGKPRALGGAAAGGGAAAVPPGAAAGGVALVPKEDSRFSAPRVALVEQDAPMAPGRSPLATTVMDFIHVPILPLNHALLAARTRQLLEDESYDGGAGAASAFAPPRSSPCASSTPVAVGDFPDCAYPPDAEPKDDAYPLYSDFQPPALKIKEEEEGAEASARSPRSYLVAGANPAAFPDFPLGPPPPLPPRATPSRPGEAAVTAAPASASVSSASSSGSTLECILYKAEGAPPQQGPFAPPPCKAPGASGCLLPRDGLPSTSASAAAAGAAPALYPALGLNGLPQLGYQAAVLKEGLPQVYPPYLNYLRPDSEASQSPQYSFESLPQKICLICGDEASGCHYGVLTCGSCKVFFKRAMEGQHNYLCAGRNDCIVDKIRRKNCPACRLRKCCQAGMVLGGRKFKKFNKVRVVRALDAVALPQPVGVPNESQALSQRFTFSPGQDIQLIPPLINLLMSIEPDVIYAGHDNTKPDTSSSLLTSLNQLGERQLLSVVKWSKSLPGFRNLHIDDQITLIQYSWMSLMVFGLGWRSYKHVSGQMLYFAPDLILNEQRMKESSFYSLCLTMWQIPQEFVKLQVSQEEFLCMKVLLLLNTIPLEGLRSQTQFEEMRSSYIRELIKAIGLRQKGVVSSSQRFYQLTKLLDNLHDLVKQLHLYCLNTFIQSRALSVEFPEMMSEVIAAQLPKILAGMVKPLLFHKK
Test method notes: Progesterone receptor binding test
Method: 1. Progesterone Receptor Binding Test: Using cytosol from progesterone receptor-expressing insect cells (Hi5), competitive binding to the progesterone receptor was determined from the ability to displace ^3H-progesterone as reference substance from the receptor.
For each record, write down the corresponding pIC50.
Keep in mind that pIC50 stands for -log10 of concentration in molar terms.

-- ask Kindly state the measured pIC50 obtained for C[C@]12CC[C@H]3[C@@H](CCC4=CC(=O)CC[C@@H]43)[C@@H]1[C@H]1C[C@H]1[C@@]21C=CC(=O)O1 [Example 12] with progesterone receptor (Homo sapiens, UniProt P06401).
-- reply 7.31

-- ask Similarly, C=C[C@@H]1CC2=CC(=O)CC[C@@H]2[C@H]2CC[C@@]3(C)[C@@H]([C@H]4C[C@H]4[C@@]34C=CC(=O)O4)[C@@H]21 [Example 16A] ?
-- reply 7.07

-- ask Try the compound C[C@]12CC[C@H]3[C@@H](CC4(CC4)C4=CC(=O)CC[C@@H]43)[C@@H]1[C@@H]1C[C@@H]1[C@@]21C=CC(=O)O1 [Example 22]
-- reply 7.52

-- ask Try this compound next: CC[C@]12CC[C@H]3[C@H]([C@@H]1[C@@H]1C[C@@H]1[C@@]21C=CC(=O)O1)[C@H](C1CC1)CC1=CC(=O)CC[C@@H]13 [Example 7A]
-- reply 6.42

-- ask Param item: C[C@]12CC[C@H]3[C@@H](CCC4=C(Cl)C(=O)CC[C@@H]43)[C@@H]1[C@H]1C[C@H]1[C@@]21C=CC(=O)O1 [Example 18]
-- reply 6.40
